Origin of the recorded values: ChEMBL document CHEMBL4190254

Listed next: entries and their corresponding EC90.
# Tested on: Hepatitis B virus
# Protocol Text: Antiviral activity against HBV infected in human HepAD38 cells assessed as reduction in viral replication by RT-PCR method
# Format: functional, organism-based

// worked examples, EC90 included
Chemical Structure | Val
O=C(Nc1ccc(F)c(F)c1)c1cc(NS(=O)(=O)C2CCCCC2)ccc1F | ≥ 10 µM
O=C(Nc1ccc(F)c(F)c1)c1cc(S(=O)(=O)NOC2CCCC2)ccc1F | > 10 µM
O=C(Nc1ccc(F)c(F)c1)c1cc(S(=O)(=O)N2CCC(F)(F)C2)ccc1F | > 10 µM
CN(C1CCCC1)S(=O)(=O)c1ccc(F)c(C(=O)Nc2ccc(F)c(F)c2)c1 | ≥ 10 µM
O=C(Nc1ccc(F)c(F)c1)c1cc(S(=O)(=O)N2CC(F)(F)C(F)(F)C2)ccc1F | > 10 µM

Read the next record carefully.
Q: EC90 lookup needed for O=C(Nc1ccc(F)c(F)c1)c1cc(NS(=O)(=O)C2CC2)ccc1F , thanks.
A: > 10 µM
